Reported values of IC50 for individual entries
Molecular target: recombinant rat PIM-3 (Rattus norvegicus)
Test: PIM-3 Assay (as Example A)
Settings: averaged IC50; 30 μM ATP, 3.75 μM PIM2tide, 0.5 nM PIM-3
Counter-ions that a name gives are not always drawn.

- compound: "CO[C@H](C)COc1ccc2ccc(-c3nnc4ccc([C@H](N5CC[C@](C)(N)C5)C(F)(F)F)cn34)nc2c1 [Example 305]"
  system.name: "recombinant rat PIM-3 (Rattus norvegicus)"
  IC50: "0.4 nM"
- compound: "COC[C@@H](C)Oc1cccc2ccc(-c3nnc4ccc(C(C)N5CC[C@H](N)C5)cn34)nc12 (stereo partly drawn) [Example 33, trihydrochloride]"
  system.name: "recombinant rat PIM-3 (Rattus norvegicus)"
  IC50: "5.9 nM"
- compound: "Cc1c(-c2cc3nc(-c4nnc5ccc([C@@H](N6CC[C@H](N)C6)C(F)(F)F)cn45)ccc3cc2F)cnn1C [Example 206, dihydrochloride]"
  system.name: "recombinant rat PIM-3 (Rattus norvegicus)"
  IC50: "0.1 nM"

====

pIC50 values recorded for UniProt:P11309
Sequence (P11309 whole entry, species assumed): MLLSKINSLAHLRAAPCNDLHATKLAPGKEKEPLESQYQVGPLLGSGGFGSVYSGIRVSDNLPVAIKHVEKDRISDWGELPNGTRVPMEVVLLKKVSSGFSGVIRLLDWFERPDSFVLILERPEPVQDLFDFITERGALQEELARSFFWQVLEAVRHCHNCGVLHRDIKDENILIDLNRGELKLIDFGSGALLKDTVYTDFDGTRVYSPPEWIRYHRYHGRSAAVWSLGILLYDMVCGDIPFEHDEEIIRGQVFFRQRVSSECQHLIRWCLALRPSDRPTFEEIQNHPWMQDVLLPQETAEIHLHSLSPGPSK
pIC50: −log10 of the molar value. Where a name gives a salt, the structure may show the parent alone.
property.label: pIC50

- compound: "CCOc1cc2nc(-c3nnc4ccc([C@@H](N5CC[C@@](C)(N)C5)C(F)(F)F)cn34)ccc2cc1F [Example 293, hydrochloride]"
  recorded.measurement: 9.40
- compound: "CC(C)Oc1cccc2ccc(-c3nnc4ccc([C@@H](N5CC[C@H](N)C5)C(F)(F)F)cn34)nc12 [Example 31, dihydrochloride]"
  recorded.measurement: 10.10
- compound: "COc1cc2nc(-c3nnc4ccc([C@@H](N5CC(F)[C@H](N)C5)C(F)(F)F)cn34)ccc2cc1F (stereo partly drawn) [Example 162, dihydrochloride]"
  recorded.measurement: 8.91
- compound: "N[C@H]1CCN([C@H](c2ccc3nnc(-c4ccc5cc(F)c(C6CC6)cc5n4)n3c2)C(F)(F)F)C1 [Example 176, dihydrochloride]"
  recorded.measurement: 9.77
- compound: "N[C@H]1CCN([C@@H](c2ccc3nnc(-c4ccc5cccc(C6CC6)c5n4)n3c2)C(F)(F)F)C1 [Example 51, dihydrochloride]"
  recorded.measurement: 10.00
- compound: "CCOc1cc2nc(-c3nnc4ccc([C@H](N5CC[C@](C)(N)C5)C(F)(F)F)cn34)ccc2cc1F"
  recorded.measurement: 9.55

====

Target: recombinant rat PIM-3 (Rattus norvegicus, UniProt O70444)
Test: PIM-3 Assay (as Example A)
Settings: averaged IC50; 30 μM ATP, 3.75 μM PIM2tide, 0.5 nM PIM-3
pIC50: −log10 of the molar value. Counter-ions that a name gives are not always drawn.
As shown below, each of these compounds has a reported pIC50 value.

- compound: "CC(C)C(=O)Nc1ccc2ccc(-c3nnc4ccc([C@@H](N5CC[C@H](N)C5)C(F)(F)F)cn34)nc2c1"
  pIC50: 9.52
- compound: "N#Cc1ccc2ccc(-c3nnc4ccc([C@@H](N5CC[C@H](N)C5)C(F)(F)F)cn34)nc2c1"
  pIC50: 7.92
- compound: "CC(C)NC(=O)c1ccc2ccc(-c3nnc4ccc([C@H](N5CC[C@@H](N)C5)C(F)(F)F)cn34)nc2c1"
  pIC50: 8.70
- compound: "N[C@H]1CCN([C@H](c2ccc3nnc(-c4ccc5cc(F)c(O)cc5n4)n3c2)C(F)(F)F)C1 [Example 157, hydrochloride]"
  pIC50: 7.92
